- Assay name: qHTS assay for MDR1-selective chemotherapeutics: Primary screen using the drug-selected MDR subline cells KB-V1; also: nearly all actives have a fitted effect of over 60% in size; also: potency is read from the fitted curve at half-maximal effect
- Measurement setup: KB-V1 MDR cells viability, CellTiter-Glo, 72 h; series mostly up to 46.1 µM
About 13,000 (3.2%) of roughly 400,000 compounds were called active. About 18% were inconclusive and are not listed. The sample holds actives, similar compounds and a random draw of the others, so the mix is not that of the screen.
Measurement type: Potency

Q) Return reported Potency; argument: CCC(=O)N1c2ccccc2CC1C(=O)N1CCN(c2cccc(OC)c2)CC1 (stereo not drawn)
A) inactive

Q) # input compound: NCCCNC(=S)NCCCN(Cc1ccc(Cl)cc1)c1ccc(Br)cn1 ; wanted: its Potency
A) inactive

Q) Could you tell me which Potency is on file for CC(C)C1CC2=C(C(=O)OC(C)(C)O2)C(c2ccc(F)cc2)O1 (stereo not drawn) ?
A) inactive

Q) So what's the measured Potency for this one? COC(=O)c1ccc(NCc2cc(O)ccc2O)cc1
A) inactive

Q) # lookup: Potency of COc1ccc(C(=O)/C=C/c2ccc(OC3CSC3)cc2)cc1
A) inactive

Others:
Q) Need Potency, item Cc1ccc(CNC(=O)c2c(-c3ccccc3)noc2C)cc1
A) inactive

Q) Fill blank: measured Potency of the compound CC(=O)c1c(C)oc2ccc(NS(=O)(=O)c3ccc(C(=O)O)cc3)cc12 is ____.
A) inactive

Q) If you can, please state the reported Potency value of CCOC(=O)c1c(-c2cccc(C)c2)csc1NC(=O)c1c(-c2ccccc2)noc1C .
A) 11.6 µM (active)

Q) Requested field: Potency. Item: COc1ccc(-c2csc(-c3c(N)c(C(=O)c4ccc(OC)c(OC)c4)n4ccccc34)n2)cc1
A) inactive

Q) For the compound shown here, CNC(=O)C1CN(C(=O)c2cccc(S(=O)(=O)N3CCc4ccccc43)c2)c2ccccc2O1 (stereo not drawn) , give the reported Potency.
A) inactive

Q) Bench note: what Potency did CC(C)OC(=O)c1ccc(NCc2cc(O)ccc2O)cc1Cl show?
A) inactive

Q) Using the record for CC(=O)NCCNC(=O)c1cc(-c2cccc3ccccc23)nc2ccccc12 , report its Potency.
A) inactive

Q) Bench note: what Potency did COc1ccc(CN(C(=O)c2cccs2)c2nccs2)cc1OC show?
A) inactive

Q) For the compound COc1ccc(CCN(C(=O)COc2ccccc2)c2nc(-c3ccccc3)cs2)cc1OC , what Potency is on record?
A) 5.8 µM (active)

Q) Would you mind telling me what Potency value was observed for CN(C)CCNC(=O)Nc1cccc(Cl)c1Cl ?
A) inactive

Q) Field request: Potency | item: O=C(Nc1ncc2c(n1)-c1ccccc1OC2)c1ccc(Cl)cc1
A) inactive

Q) Quick one: Potency of CC(=O)NC(c1ccccc1)c1nc(-c2ccccc2C)cs1 (stereo not drawn) ?
A) inactive

Q) Which Potency value is on record for CCOC(=O)c1cnn2c(SC)ncnc12 ?
A) inactive

Q) Quick check: Potency of CCc1ccc(S(=O)(=O)Nc2cc3c(C(=O)OCc4ccccc4)c(C)oc3c3ccccc23)cc1 ?
A) inactive

Q) So what does the record say about Potency for C#CCNC(=O)C[C@@H]1C[C@@]2(C(=O)OCC)CCCC=C2N(Cc2ccco2)C1=O ?
A) inactive

Q) Need Potency of Cc1[nH]c2ccccc2c1C(=O)C(=O)N(C)c1ccccc1 , thanks.
A) inactive

Q) I'd like to know its Potency. The compound in question is O=C(Cc1ccc(Cl)cc1)Nc1ccc2nn(-c3ccc(Cl)cc3)nc2c1
A) inactive

Q) Can you share its Potency? I mean this compound: CC1(C(=O)Nc2cccc3c2CCCC3)CCN1C(=O)CCc1ccc(Cl)cc1Cl (stereo not drawn)
A) inactive

Q) What measured Potency goes with COc1ccc(-c2nnc(SCC(=O)Nc3ccc(C(C)C)cc3)nc2-c2ccc(OC)c(OC)c2)cc1OC ?
A) inactive

Q) Field request: Potency | item: COc1ccc(/C=C/C(=O)c2cc(Br)ccc(=O)c2O)cc1
A) 14.6 µM (active)

Q) Would you kindly share the measured Potency for CCC1NC(=O)c2cccnc2-n2c1nc1ccc(C)cc1c2=O (stereo not drawn) ?
A) inactive

Q) Any idea what its Potency is? The compound is COc1cc2ccccc2cc1C(=O)Nc1ccc(S(=O)(=O)Nc2cc(C)on2)cc1
A) inactive
